test system: Staphylococcus aureus; assay: Antibacterial activity against Staphylococcus aureus ATCC 29213 incubated for 16 to 20 hrs using 10^4 CFU/ml bacterial inoculum by broth microdilution method; type: functional; settings: time 16-20 hrs
measured.metric: MIC
Answer format: value, then unit.

| molecule.smiles | system.under.test | meas.value |
| --- | --- | --- |
| CC(=O)NC[C@H]1CN(c2ccc(N3CCOCC3)c(F)c2)C(=O)O1 | Staphylococcus aureus | 0.25 µg/mL |

# return MIC for each item in the list
1. CC[C@H]1OC(=O)C[C@@H](O)[C@H](C)[C@@H](O[C@@H]2O[C@H](C)[C@@H](O)[C@H](N(C)C)[C@H]2O)[C@@H](CCN2CCCCC2)C[C@@H](C)C(=O)/C=C/C(C)=C/[C@@H]1CN1CCCCC1
2. CC[C@H]1OC(=O)C[C@@H](O)[C@H](C)[C@@H](O[C@@H]2O[C@H](C)[C@@H](O[C@H]3C[C@@](C)(O)[C@@H](O)[C@H](C)O3)[C@H](N(C)C)[C@H]2O)[C@@H](CC=O)C[C@@H](C)C(=O)/C=C/C(C)=C/[C@@H]1CO[C@@H]1O[C@H](C)[C@@H](O)[C@@H](OC)[C@H]1OC

[reply]
1. 1 µg/mL
2. 0.5 µg/mL

Record summary for `CC[C@H]1OC(=O)C[C@@H](O)[C@H](C)[C@@H](O[C@@H]2O[C@H](C)[C@@H](O)[C@H](N(C)C)[C@H]2O)[C@@H](CCN(C)Cc2cn(-c3cnc4ccccc4c3)nn2)C[C@@H](C)C(=O)/C=C/C(C)=C/[C@@H]1CN1CCCCCC1` : reported MIC = 0.125 µg/mL

###

tested on: Staphylococcus aureus; experiment: Antibacterial activity against Staphylococcus aureus ATCC 29213 at pH 8.6 incubated for 16 to 20 hrs in presence of 10% foetal bovine serum by broth microdilution method; type: functional; conditions: time 16-20 hrs
measured.metric: MIC

| molecule.smiles | measured.metric | meas.value |
| --- | --- | --- |
| CC[C@H]1OC(=O)C[C@@H](O)[C@H](C)[C@@H](O[C@@H]2O[C@H](C)[C@@H](O)[C@H](N(C)C)[C@H]2O)[C@@H](CCN(C)Cc2cn(-c3cnc4ccccc4c3)nn2)C[C@@H](C)C(=O)/C=C/C(C)=C/[C@@H]1CN1CCCCCC1 | MIC | 0.5 µg/mL |
| CC[C@H]1OC(=O)C[C@@H](O)[C@H](C)[C@@H](O[C@@H]2O[C@H](C)[C@@H](O[C@H]3C[C@@](C)(O)[C@@H](O)[C@H](C)O3)[C@H](N(C)C)[C@H]2O)[C@@H](CC=O)C[C@@H](C)C(=O)/C=C/C(C)=C/[C@@H]1CO[C@@H]1O[C@H](C)[C@@H](O)[C@@H](OC)[C@H]1OC | MIC | > 32 µg/mL |
| CC(=O)NC[C@H]1CN(c2ccc(N3CCOCC3)c(F)c2)C(=O)O1 | MIC | > 32 µg/mL |

Form: item `CC[C@H]1OC(=O)C[C@@H](O)[C@H](C)[C@@H](O[C@@H]2O[C@H](C)[C@@H](O)[C@H](N(C)C)[C@H]2O)[C@@H](CCN2CCCCC2)C[C@@H](C)C(=O)/C=C/C(C)=C/[C@@H]1CN1CCCCC1` ; test system Staphylococcus aureus; MIC: 8 µg/mL

###

tested on: Escherichia coli; test: Antibacterial activity against Escherichia coli ATCC 25922 incubated for 16 to 20 hrs using 10^6 CFU/ml bacterial inoculum by broth microdilution method; type: functional; conditions: time 16-20 hrs
Exercise: for every item that follows, state its recorded MIC.
Answers are plain numbers, in µg/mL.

| molecule.smiles | system.under.test | MIC (µg/mL) |
| --- | --- | --- |
| CC[C@H]1OC(=O)C[C@@H](O)[C@H](C)[C@@H](O[C@@H]2O[C@H](C)[C@@H](O)[C@H](N(C)C)[C@H]2O)[C@@H](CCN(C)Cc2cn(-c3cnc4ccccc4c3)nn2)C[C@@H](C)C(=O)/C=C/C(C)=C/[C@@H]1CN1CCCCCC1 | Escherichia coli | 0.5 |

Shift focus to the following entry.
Record summary for `CC[C@H]1OC(=O)C[C@@H](O)[C@H](C)[C@@H](O[C@@H]2O[C@H](C)[C@@H](O)[C@H](N(C)C)[C@H]2O)[C@@H](CCN2CCCCC2)C[C@@H](C)C(=O)/C=C/C(C)=C/[C@@H]1CN1CCCCC1` : reported MIC = 2

###

test system: Staphylococcus chromogenes; test: Antibacterial activity against Staphylococcus chromogenes incubated for 16 to 20 hrs by broth microdilution method; assay type: functional; settings: time 16-20 hrs
measured.metric: MIC (µg/mL)
One number for each entry, in µg/mL.

Known MIC results, listed for orientation:
| molecule.smiles | MIC [µg/mL] |
| --- | --- |
| CC[C@H]1OC(=O)C[C@@H](O)[C@H](C)[C@@H](O[C@@H]2O[C@H](C)[C@@H](O)[C@H](N(C)C)[C@H]2O)[C@@H](CCN(C)Cc2cn(-c3cnc4ccccc4c3)nn2)C[C@@H](C)C(=O)/C=C/C(C)=C/[C@@H]1CN(CC)CC | 1 |
| CC[C@H]1OC(=O)C[C@@H](O)[C@H](C)[C@@H](O[C@@H]2O[C@H](C)[C@@H](O)[C@H](N(C)C)[C@H]2O)[C@@H](CCN(C)Cc2cn(-c3cnc4ccccc4c3)nn2)C[C@@H](C)C(=O)/C=C/C(C)=C/[C@@H]1CN1CCCCCC1 | 0.25 |
| CC[C@H]1OC(=O)C[C@@H](O)[C@H](C)[C@@H](O[C@@H]2O[C@H](C)[C@@H](O)[C@H](N(C)C)[C@H]2O)[C@@H](CC=O)C[C@@H](C)C(=O)/C=C/C(C)=C/[C@@H]1CO | 1 |
| CC[C@H]1OC(=O)C[C@@H](O)[C@H](C)[C@@H](O[C@@H]2O[C@H](C)[C@@H](O)[C@H](N(C)C)[C@H]2O)[C@@H](CCN(C)Cc2cn(-c3cnc4ccccc4c3)nn2)C[C@@H](C)C(=O)/C=C/C(C)=C/[C@@H]1CN1CCCCCCC1 | 1 |

Shift focus to the following entry.
Record summary for `CC(=O)NC[C@H]1CN(c2ccc(N3CCOCC3)c(F)c2)C(=O)O1` : reported MIC = 1

Value source: ChEMBL document CHEMBL5126592
